target: human FAAH (Homo sapiens); construct: expressed in transfected cells; host or cells: H4 cells (H4-FAAH, Geneticin-selected); crude membrane homogenates; test: FAAH activity in membrane homogenates of H4-FAAH cells, [3H]-anandamide hydrolysis; assay type: biochemical; settings: H4-FAAH cell membranes, 10 μM anandamide, room temperature, one hour; read-out: IC50
Sequence (O00519 whole entry): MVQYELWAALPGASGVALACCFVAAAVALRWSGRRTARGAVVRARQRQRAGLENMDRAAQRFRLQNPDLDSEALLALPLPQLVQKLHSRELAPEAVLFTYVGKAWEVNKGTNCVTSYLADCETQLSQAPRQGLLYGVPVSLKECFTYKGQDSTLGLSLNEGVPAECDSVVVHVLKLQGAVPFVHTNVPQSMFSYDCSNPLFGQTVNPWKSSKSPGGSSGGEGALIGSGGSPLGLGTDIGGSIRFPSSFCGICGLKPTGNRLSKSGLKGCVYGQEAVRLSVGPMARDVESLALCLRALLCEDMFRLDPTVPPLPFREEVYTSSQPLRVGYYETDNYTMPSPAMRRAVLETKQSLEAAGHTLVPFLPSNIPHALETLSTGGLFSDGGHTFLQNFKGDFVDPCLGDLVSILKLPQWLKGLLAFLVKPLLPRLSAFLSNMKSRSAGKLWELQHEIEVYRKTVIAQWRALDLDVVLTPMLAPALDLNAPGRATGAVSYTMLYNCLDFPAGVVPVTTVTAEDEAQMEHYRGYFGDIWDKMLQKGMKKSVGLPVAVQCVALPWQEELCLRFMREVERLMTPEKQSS
# IC50 listing for each entry below
observation type: IC50

O=C(Nc1ccc(OCCCN2CCOCC2)cc1)O/N=C/c1ccc(F)cc1 [Example 58]; > 500 nM
CCCCOc1ccc(C(CC)NC(=O)Oc2ccccc2F)cc1 (centres unmarked) [Example 135]; < 10 nM
CCOc1ccc(NC(=O)ON=C(C)C)cc1 [Example 6]; 101 to 500 nM
CCCCCCCCCCOc1ccc(NC(=O)Oc2ccccc2F)cc1 [Example 102]; < 10 nM
CCCOc1ccc(NC(=O)O/N=C/c2cccnc2)cc1 [Example 16]; 10 to 100 nM
CCCCCCCCCCCOc1ccc(NC(=O)ON=C(C)C)cc1 [Example 36]; < 10 nM
CCCCOc1ccc(CNC(=O)Oc2ccc(C(F)(F)F)cc2)cc1 [Example 119]; 10 to 100 nM
O=C(Nc1ccc(Oc2ccccc2)cc1)O/N=C/c1ccccc1 [Example 76]; < 10 nM
O=C(Nc1ccc2oc3ccccc3c2c1)O/N=C/c1ccccc1 [Example 154]; 10 to 100 nM
CCCCOc1ccc(NC(=O)Oc2ccccc2OC)cc1 [Example 110]; > 500 nM
O=C(Nc1ccc2oc3ccccc3c2c1)O/N=C/c1ccc(F)cc1 [Example 153]; 10 to 100 nM
CCCCCCCCCCCOc1ccc(NC(=O)O/N=C/c2ccc(F)cc2)cc1 [Example 38]; < 10 nM
CCCCCCCCOc1ccc(NC(=O)O/N=C/c2cccnc2)cc1 [Example 30]; < 10 nM
CCOc1ccc(NC(=O)O/N=C/c2ccc(F)cc2)cc1 [Example 12]; 10 to 100 nM
CCCCOc1ccc(NC(=O)ON=C(C)C)cc1 [Example 60]; 10 to 100 nM
CCCCCCCOc1ccc(NC(=O)O/N=C/c2cccnc2)cc1 [Example 1]; < 10 nM
O=C(Nc1ccc(Oc2ccccn2)cc1)O/N=C/c1ccc(F)cc1 [Example 148]; 10 to 100 nM
CCCCOc1ccc(CNC(=O)ON=C(C)C)cc1 [Example 61]; > 500 nM
CCCCOc1ccc(CNC(=O)Oc2ccc(F)cc2F)cc1 [Example 120]; < 10 nM
CCCCCCCCCOc1ccc(NC(=O)O/N=C/c2cccc(F)c2)cc1 [Example 52]; < 10 nM

Provenance of the data: patent US6949574B2
